Tested on: Escherichia coli TOP10
Experiment: shrunken log2 fold change of peptide-encoding DNA abundance (4.5 h post-induction vs induction); higher = less antimicrobial activity (less host growth inhibition)
Conditions: time post-induction: 4.5 h; library: site-saturation at positions 5, 18, 19, 20
recorded_endpoint: shrunken log2 fold change
Enter a number only.

The sequence `RRIRHRPPRLPRPRPRPTQNPRP` , tested on Escherichia coli TOP10, showed shrunken log2 fold change of 0.666

The sequence `RRIRGRPPRLPRPRPRPLCKPRP` , tested on Escherichia coli TOP10, showed shrunken log2 fold change of 0.529

The sequence `RRIRMRPPRLPRPRPRPLLQPRP` , tested on Escherichia coli TOP10, showed shrunken log2 fold change of 0.616

The sequence `RRIRERPPRLPRPRPRPMLWPRP` , tested on Escherichia coli TOP10, showed shrunken log2 fold change of -0.0445

The sequence `RRIRVRPPRLPRPRPRPNMAPRP` , tested on Escherichia coli TOP10, showed shrunken log2 fold change of -0.38

The sequence `RRIRCRPPRLPRPRPRPVPAPRP` , tested on Escherichia coli TOP10, showed shrunken log2 fold change of 0.457

The sequence `RRIRQRPPRLPRPRPRPVSGPRP` , tested on Escherichia coli TOP10, showed shrunken log2 fold change of 0.179

The sequence `RRIRSRPPRLPRPRPRPVYAPRP` , tested on Escherichia coli TOP10, showed shrunken log2 fold change of 0.0491

The sequence `RRIRDRPPRLPRPRPRPWRGPRP` , tested on Escherichia coli TOP10, showed shrunken log2 fold change of 0.196

The sequence `RRIRCRPPRLPRPRPRPSKSPRP` , tested on Escherichia coli TOP10, showed shrunken log2 fold change of -0.0548

The sequence `RRIRARPPRLPRPRPRPEYPPRP` , tested on Escherichia coli TOP10, showed shrunken log2 fold change of 0.0126

The sequence `RRIRLRPPRLPRPRPRPQSVPRP` , tested on Escherichia coli TOP10, showed shrunken log2 fold change of -0.325

The sequence `RRIRIRPPRLPRPRPRPTFEPRP` , tested on Escherichia coli TOP10, showed shrunken log2 fold change of 0.168

The sequence `RRIRIRPPRLPRPRPRPDELPRP` , tested on Escherichia coli TOP10, showed shrunken log2 fold change of 0.0623

The sequence `RRIRWRPPRLPRPRPRPVWAPRP` , tested on Escherichia coli TOP10, showed shrunken log2 fold change of 0.263

* * *

Test system: Escherichia coli TOP10;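 also: peptides expressed intracellularly from a pBAD plasmid library in pooled LB shake-flask culture, induced with 0.3% L-arabinose, DNA abundance read by NGS, three biological replicates, DESeq2 with apeglm shrinkage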
Test: shrunken log2 fold change of peptide-encoding DNA abundance (4.5 h post-induction vs induction); higher = less antimicrobial activity (less host growth inhibition)
Details: time post-induction: 4.5 h; library: site-saturation at positions 5, 18, 19, 20
Measured shrunken log2 fold change determines class: Low (below -0.2), Medium (-0.2 to below 0.05), High (0.05 or more)

Task item: Any idea which band `RRIRIRPPRLPRPRPRPPVHPRP` is in?
Reply: Medium

Task item: Any idea which band `RRIRMRPPRLPRPRPRPDNTPRP` is in?
Reply: High

Task item: Any idea which band `RRIRARPPRLPRPRPRPSWHPRP` is in?
Reply: Medium

Task item: Any idea which band `RRIRLRPPRLPRPRPRPLEEPRP` is in?
Reply: High

Task item: Any idea which band `RRIRYRPPRLPRPRPRPLKCPRP` is in?
Reply: Low

Task item: Any idea which band `RRIRPRPPRLPRPRPRPFHEPRP` is in?
Reply: Medium

Task item: Any idea which band `RRIRFRPPRLPRPRPRPADHPRP` is in?
Reply: Medium

Task item: Any idea which band `RRIRIRPPRLPRPRPRPFRTPRP` is in?
Reply: Low

Task item: Any idea which band `RRIRIRPPRLPRPRPRPTWEPRP` is in?
Reply: Low

Task item: Any idea which band `RRIRLRPPRLPRPRPRPETDPRP` is in?
Reply: Medium

Task item: Any idea which band `RRIRWRPPRLPRPRPRPHGNPRP` is in?
Reply: High

Task item: Any idea which band `RRIRNRPPRLPRPRPRPKMCPRP` is in?
Reply: Medium

Task item: Any idea which band `RRIRRRPPRLPRPRPRPIFSPRP` is in?
Reply: High

Task item: Any idea which band `RRIRYRPPRLPRPRPRPPEIPRP` is in?
Reply: Medium

Task item: Any idea which band `RRIRARPPRLPRPRPRPYRSPRP` is in?
Reply: Low
